# target system: UniProt P00921
# Sequence (P00921 whole entry): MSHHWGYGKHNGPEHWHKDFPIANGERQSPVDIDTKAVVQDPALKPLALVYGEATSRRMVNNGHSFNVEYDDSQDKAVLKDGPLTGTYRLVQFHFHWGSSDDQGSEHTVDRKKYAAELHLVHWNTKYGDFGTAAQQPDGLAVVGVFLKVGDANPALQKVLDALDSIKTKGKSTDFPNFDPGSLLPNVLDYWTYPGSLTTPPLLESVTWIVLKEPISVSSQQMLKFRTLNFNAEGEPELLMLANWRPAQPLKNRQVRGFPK
property: pKi
Give bare numbers, as −log10 of the molar value.

Query: Note down pKi recorded for CCOC(=O)/C=C1\S/C(=N\C(=O)c2cccc(C)c2)N(c2cccc(CC)c2)C1=O [Compound 6e]
Reply: 5.66

Source listed as paper PMC9687900.
